Reported TGI by item:
test system: MOLT-4 leukemia; experiment: NCI tumour cell line growth inhibition, 48 h
Reply with just the number (in µM).

Take a look at these entries with their results.
CN1CCN(CCNc2ccc(CO)c3sc4ccccc4c(=O)c23)CC1 | 12.3
C[C@H](CCC(=O)O)[C@H]1CC[C@H]2[C@@H]3[C@H](O)C[C@@H]4C[C@H](O)CC[C@]4(C)[C@H]3CC[C@]12C | 62

Reported TGI of "C[C@@H](Oc1ccc2[nH]nc(/C=C/c3cnn(CCO)c3)c2c1)c1c(Cl)cncc1Cl" : 3.34

Looking up "CC1(C)CCCOc2cccc(c2)OCCCC(C)(C)C1=O" , I found its TGI recorded as 37.1

----------
// reported TGI for each item listed
tested on: MALME-3M melanoma; assay: NCI tumour cell line growth inhibition, 48 h

CCCCCCCCCCCCn1[nH]c(C)c(C(=S)SCCCCCCCC)c1=O | > 100 µM

Okay, next one:
Noted for "COc1ccc(NC(=O)CC(=O)N/N=C/c2ccc(N(CCC#N)S(=O)(=O)c3ccccc3)cc2)cc1" : its TGI reads > 100 µM

----------
tested on: NCI/ADR-RES ovarian; assay: NCI tumour cell line growth inhibition, 48 h
readout-type: GI50

Worked set:
COC(=O)OCc1ccc2c(c1)C(=O)c1c-2n(CCCBr)c(=O)c2cc([N+](=O)[O-])ccc12 | > 100000 nM
C#Cc1cccc(Oc2ccc(NC(=O)CCl)cc2)c1 | > 82500 nM
Oc1c(I)cc(-c2nc3ccccc3s2)cc1CN(Cc1ccccn1)Cc1ccccn1 | 411 nM
Cc1cccc2c1O/C(=C\c1ccc([N+](=O)[O-])o1)C2=O | 2540 nM
N#C/C(N)=C(\C#N)N=Cc1csc2ccccc12 | 32400 nM

Lab book: GI50 of "NC(=S)N/N=C\c1nccc2c(N)cccc12" noted as 375 nM

----------
tested on: HOP-62 NSCLC; experiment: NCI tumour cell line growth inhibition, 48 h; in the data active = GI50 below about 0.43 µM; inactive = the rest
Write down one outcome, taken from active, inactive

C1=C(c2ccccc2)C(c2ccc(OCCN3CCCCC3)cc2)Oc2ccccc21 (centres undefined) | inactive
C#Cc1cccc(Oc2ccc(NC(=O)CCl)cc2)c1 | inactive
C[C@@H](Oc1ccc2[nH]nc(/C=C/c3cnn(CCO)c3)c2c1)c1c(Cl)cncc1Cl | active
C=CCC(N[C@H](CO)c1ccccc1)c1cn(S(=O)(=O)c2ccc(C)cc2)c2ccccc12 (some centres undefined) | inactive
OCC#Cc1ccccc1C#Cc1ccc(C#Cc2ccccc2C#CCO)s1 | inactive
CS(=O)(=O)CCn1c(=O)c(Oc2ccc(F)cc2F)cc2cnc(NC3CCOCC3)nc21 | inactive

Outcome logged for "CC(=O)/C=C/C1=C(c2cccs2)c2ccccc2CC1" in this assay:
inactive

// param item: "CC(=O)c1cc2c(c3ccsc13)-c1ccccc1CC2" ; yields the recorded call
inactive

For "Oc1c(I)cc(-c2nc3ccccc3s2)cc1CN(Cc1ccccn1)Cc1ccccn1" , what call appears in the results of this test?
active

----------
tested on: LOX IMVI melanoma; assay: NCI tumour cell line growth inhibition, 48 h
readout-type: TGI

Examples from the recorded data:
CSc1nc2c(c(O)c(C)c(=O)n2C2OCC(OC(C)=O)C(OC(C)=O)C2OC(C)=O)c(=O)n1C (stereo not given) | > 100 µM
COc1cc2c([C@@H](OC(=O)c3ccccc3)c3ccc4c(c3)OCO4)nccc2c(OC)c1OC | > 100 µM
CC(=O)C(=[N+]=[N-])C(=O)OCCOC(=O)C(=[N+]=[N-])C(C)=O | > 1 µM
CCCC(=O)OCC1OC(n2cc(F)c(=O)[nH]c2=O)C(F)C1OC(=O)CCC (stereo not given) | > 100 µM

get_value(item= "C#C[C@]1(O)CC[C@H]2[C@@H]3CCC4=C/C(=N\OCCN(CC)CC)CC[C@]4(C)[C@H]3CC[C@@]21C" , readout=TGI) returns 13.1 µM

----------
test system: IGROV1 ovarian; assay: NCI tumour cell line growth inhibition, 48 h
Decide by TGI: equal to or exceeding 20 µM means Criterion met, less means Criterion not met.

Cc1cc(=O)oc2c3c(ccc12)OC(c1ccc(Br)cc1)CC3=O (stereo not given) | Criterion met
CC1(C)N=C(C(=O)c2ccccc2)N(O)C1(O)c1ccccc1 (stereo not given) | Criterion met
C1=C(c2ccccc2)C(c2ccc(OCCN3CCCCC3)cc2)Oc2ccccc21 (stereo not given) | Criterion not met
COc1cccc(NC(=O)CC(=O)N2N=C(C)C(N=Nc3ccc(S(=O)(=O)CCOS(=O)(=O)O)cc3)C2=O)c1 (stereo not given) | Criterion not met
CN(NC(=O)/C(=C\c1ccco1)NC(=O)c1ccccc1)c1cn[nH]c(=O)c1Cl | Criterion met
COC(CN(C=O)[C@@H](c1ccc(Cl)cc1)c1cc2ccccc2o1)OC | Criterion met
CCN(CC)c1ccc2cc(C(=O)Nc3nc(C45CC6CC(CC(C6)C4)C5)cs3)c(=O)oc2c1 | Criterion met
C#Cc1cccc(Oc2ccc(NC(=O)CCl)cc2)c1 | Criterion met

Is reported TGI greater than or equal to 20 µM here: "COC(=O)C1=C(O)CCCC(CCC(C)=O)=C1"
Criterion met

hey, is TGI for this one >= 20 µM? "Cc1cccc2c1O/C(=C\c1ccc([N+](=O)[O-])o1)C2=O"
Criterion not met

----------
Listing: TGI of selected molecules
system: HCC-2998 colon; assay: NCI tumour cell line growth inhibition, 48 h

Some entries whose results are on file:
CCCCCCCCCCCCn1[nH]c(C)c(C(=S)SCCCCCCCC)c1=O | > 100 µM
O=C(NCCNCCNC(=O)C(F)(F)F)C(F)(F)F | > 100 µM
CC(=O)OC1CC[C@@]2(C)C(C1)CC(OC(C)=O)[C@@H]1C2CC(OC(C)=O)[C@]2(C)C(C(C)CC=C(c3ccc(Cl)cc3)c3ccc(Cl)cc3)CCC12 (stereo not given in full) | > 100 µM
CC1(C)CCC[C@]2(C)[C@@H]1CC[C@@]13O[C@@H]1C1=C(CO)C(=O)OC1=C[C@@H]23 | 46.7 µM

// moving on: another record for TGI
What the record says about "Nc1nc(NCC2(CO)CCC2)cc(=O)[nH]1" : TGI is > 100 µM

----------
test system: UO-31 renal; experiment: NCI tumour cell line growth inhibition, 48 h
readout-type: TGI

O=C1/C(=C/c2ccccc2)CCc2ccccc21 | 27.8 µM
CC(C)C1OC(=O)/C=C/C=C/C=C/C=C/C=C/CC(O)C(C)C(O)CC(O)CC(O)CC(O)CC(O)CC(O)CC(O)/C=C/C1C (stereo unspecified) | > 100 µM
Cc1ccc(NC(=O)c2[nH]c(SCCN(C)C)nc2-c2ccc(F)cc2)cc1C#Cc1cnc2cccnn12 | 2.79 µM
NCCP(=O)(O)O | > 100 µM
O[C@H]1[C@H]2[C@H](O)C[C@H](CCOCc3ccccc3)CN2C[C@H]1O | > 100 µM

The value of TGI measured for the compound O=S(=O)(O)/C(=C\c1ccccc1)c1ccccc1 (tested in a mixture with another compound) turned out to be > 100 µM

// "Cc1cc(C)cc(Nc2ccc([N+](=O)[O-])c(NCCN3CCOCC3)n2)c1" : TGI value = > 100 µM

Notebook: "CCCCCCCCCCCCn1[nH]c(C)c(C(=S)SCCCCCCCC)c1=O" , TGI read as > 100 µM

According to the records, this compound Cc1c2n(c3ccccc13)CC1CON(C)C21 (stereo unspecified) displays TGI of > 100 µM

----------
tested on: SNB-75 CNS; test: NCI tumour cell line growth inhibition, 48 h
The compounds listed here are annotated with their TGI.

Past entries and their recorded results:
CCN(CC)CCOc1ccc2c(c1)C(=O)c1cc(OCCN(CC)CC)ccc1-2 | 24.9 µM
COC(=O)NC(=O)c1cn(CCCOC(=O)CCCCCCCCC(=O)OCCCn2cc(C(=O)NC(=O)OC)c(=O)[nH]c2=O)c(=O)[nH]c1=O | 50.1 µM
Cc1cc(C)c2c(SCc3ccc(Cl)cc3Cl)nc(N)nc2n1 | > 100 µM
CCOC(=O)c1sc2nc(-c3ccccc3)nn2c1CBr | 3.69 µM
Cn1c2ccccc2c2nc3ccccc3c(Cl)c21 | > 100 µM
COc1ccc(/C=C(/C)[N+](=O)[O-])cc1 | 3.4 µM
O=C1CC(c2ccc(Cl)cc2)C2(C(=O)NC(=O)NC2=O)C(c2ccc(Cl)cc2)C1 (stereo unspecified) | > 75 µM
CCCCCCCCCCCCn1[nH]c(C)c(C(=S)SCCCCCCCC)c1=O | > 100 µM

Record "CCOP(=O)(OCC)[C@]12C[C@@H](C)C=C[C@H]1COC2=O" , field TGI: > 100 µM

Noted for NC(Cc1ccnnc1)C(=O)O (stereo unspecified) : its TGI reads > 100 µM

In plain terms, "N[C@@H]1CCCC[C@@H]1N.O=C([O-])CN(CP(=O)([O-])[O-])CP(=O)([O-])[O-].[Pt+2]" has a documented TGI of > 100 µM
